# System: Klebsiella pneumoniae ATCC BAA-2146 (NDM-1)
# Assay: Antibacterial activity, MIC by dish double dilution method
# Format: cell-based
# Study Conditions: ATCC BAA-2146
Where a SMILES comes first, the peptide text is derived from it. Bridges are numbered along the chain shown (N, C = ends). [ ]: non-standard residue; d: D form. The star is where a group is joined. Nonanoyl = CCCCCCCCC(=O)*; X2 = CC[C@H](C)CCCCC(=O)*; Heptanoyl = CCCCCCC(=O)*; Octanoyl = CCCCCCCC(=O)*; Dab = NCC[C@H](N)C(=O)O
Task for the reader: assign each of the following molecules its reported MIC K. pneumoniae ATCC BAA-2146 (NDM-1).
Could you give me the number in µg/mL? Just the number is fine.

The molecule CC[C@H](C)CCCCC(=O)N[C@@H](CCN)C(=O)N[C@H](C(=O)N[C@@H](CCN)C(=O)N[C@H]1CCNC(=O)[C@H]([C@@H](C)O)NC(=O)[C@H](CCN)NC(=O)[C@H](CCN)NC(=O)[C@H]([C@@H](C)CC)NC(=O)[C@@H](CC(C)C)NC(=O)[C@H](CCN)NC1=O)[C@@H](C)O [Compound 71] (X2-[Dab]T[Dab][Dab][Dab][dL]I[Dab][Dab]T; lactam 4-C) showed MIC K. pneumoniae ATCC BAA-2146 (NDM-1) equal to 1

The molecule CCCCCCC(=O)N[C@@H](CCN)C(=O)N[C@H](C(=O)N[C@@H](CCN)C(=O)N[C@H]1CCNC(=O)[C@H]([C@@H](C)O)NC(=O)[C@H](CCN)NC(=O)[C@H](CCN)NC(=O)[C@H](CC(C)C)NC(=O)[C@@H](Cc2ccccc2)NC(=O)[C@H](CCN)NC1=O)[C@@H](C)O [Compound 45] (Heptanoyl-[Dab]T[Dab][Dab][Dab][dF]L[Dab][Dab]T; lactam 4-C) showed MIC K. pneumoniae ATCC BAA-2146 (NDM-1) equal to 0.5

The molecule CCCCCCCCC(=O)N[C@@H](CCN)C(=O)N[C@H](C(=O)N[C@@H](CCN)C(=O)N[C@H]1CCNC(=O)[C@H]([C@@H](C)O)NC(=O)[C@H](CCN)NC(=O)[C@H](CCN)NC(=O)[C@H](CC(C)C)NC(=O)[C@@H](Cc2ccccc2)NC(=O)[C@H](CCN)NC1=O)[C@@H](C)O [Compound 46] (Nonanoyl-[Dab]T[Dab][Dab][Dab][dF]L[Dab][Dab]T; lactam 4-C) showed MIC K. pneumoniae ATCC BAA-2146 (NDM-1) equal to 2

The molecule CC[C@H](C)CCCCC(=O)N[C@@H](CCN)C(=O)N[C@H](C(=O)N[C@@H](CCN)C(=O)N[C@H]1CCNC(=O)[C@H]([C@@H](C)O)NC(=O)[C@H](CCN)NC(=O)[C@H](CCN)NC(=O)[C@H]([C@@H](C)O)NC(=O)[C@@H](CC(C)C)NC(=O)[C@H](CCN)NC1=O)[C@@H](C)O [Compound 102] (X2-[Dab]T[Dab][Dab][Dab][dL]T[Dab][Dab]T; lactam 4-C) showed MIC K. pneumoniae ATCC BAA-2146 (NDM-1) equal to 0.25

The molecule CCCCCCCC(=O)N[C@@H](CCN)C(=O)N[C@H](C(=O)N[C@@H](CCN)C(=O)N[C@H]1CCNC(=O)[C@H]([C@@H](C)O)NC(=O)[C@H](CCN)NC(=O)[C@H](CCN)NC(=O)[C@H](CC(C)C)NC(=O)[C@@H](CC(C)C)NC(=O)[C@H](CCN)NC1=O)[C@@H](C)O [Compound 78] (Octanoyl-[Dab]T[Dab][Dab][Dab][dL]L[Dab][Dab]T; lactam 4-C) showed MIC K. pneumoniae ATCC BAA-2146 (NDM-1) equal to 0.5

The molecule CCCCCCCC(=O)N[C@@H](CCN)C(=O)N[C@H](C(=O)N[C@H](CO)C(=O)N[C@H]1CCNC(=O)[C@H]([C@@H](C)O)NC(=O)[C@H](CCN)NC(=O)[C@H](CCN)NC(=O)[C@H]([C@@H](C)O)NC(=O)[C@@H](CC(C)C)NC(=O)[C@H](CCN)NC1=O)[C@@H](C)O [Compound 60] (Octanoyl-[Dab]T[dS][Dab][Dab][dL]T[Dab][Dab]T; lactam 4-C) showed MIC K. pneumoniae ATCC BAA-2146 (NDM-1) equal to 0.5

The reported measurements were obtained from patent US20190315806A1.
